Biological target: endogenous TFPI of normal human plasma (human, UniProt P10646 29-304, limits assumed)
Test: cell-based or functional assay
The binders listed here are annotated with their thrombin peak (nM) at 100 nM, FVIII-neutralised plasma, endogenous TFPI.
# unit: nM | format: bare number

Use these answered entries as a reference point.
binder | unit abbrev | observed
Fab 0095 (Fab fragment of mAb 2014) (Fab, V domains shown, KPI-2 specific) VH: EVQLVESGGGLVKPGGSLRLSCAASGFTFSNYAMSWVRQAPGKGLEWVSTISRSGSYSYYADSVKGRFTISRDNAKNSLYLQMNSLRAEDTAVYYCARLGGYDEGDAMDSWGQGTTVTVSS VL: DIVMTQTPLSLSVTPGQPASISCKSSQSLLESDGKTYLNWLLQRPGESPKLLIYLVSILDSGVPDRFSGSGSGTDFTLKISRVEAEDVGVYYCLQATHFPQTFGGGTKVEIKR | nM | 84.7
mAb 2021 (antibody, human IgG4 S228P, kappa, V domains shown) VH: EVQLVESGGGLVKPGGSLRLSCAASGFTFSNYAMSWVRQTPEKRLEWVATISRSGSYSYFPDSVQGRFTISRDNAKNSLYLQMNSLRAEDTAVYYCARLGGYDEGDAMDSWGQGTTVTVSS VL: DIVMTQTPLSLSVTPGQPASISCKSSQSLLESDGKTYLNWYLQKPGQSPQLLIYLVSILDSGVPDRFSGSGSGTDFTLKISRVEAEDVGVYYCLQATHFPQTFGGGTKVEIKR | nM | 118
Fab 0094 (Fab fragment of mAb 2007) (Fab, V domains shown, KPI-2 specific) VH: EVQLVESGGGLVKPGGSLRLSCAASGFTFSNYAMSWVRQAPGKGLEWVSTISRSGSYSYYPDSVKGRFTISRDNAKNSLYLQMNSLRAEDTAVYYCARLGGYDEGDAMDSWGQGTTVTVSS VL: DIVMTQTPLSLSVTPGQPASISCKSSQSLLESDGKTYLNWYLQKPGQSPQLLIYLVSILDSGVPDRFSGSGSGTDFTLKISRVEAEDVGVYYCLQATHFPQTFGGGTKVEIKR | nM | 74.1

Now consider the entry below.
Requested read-out: thrombin peak (nM) at 100 nM, FVIII-neutralised plasma, endogenous TFPI. Entry: Fab 0088 (Fab fragment of mAb 2021) (Fab, V domains shown, free C-terminal cysteine; KPI-2 specific) VH: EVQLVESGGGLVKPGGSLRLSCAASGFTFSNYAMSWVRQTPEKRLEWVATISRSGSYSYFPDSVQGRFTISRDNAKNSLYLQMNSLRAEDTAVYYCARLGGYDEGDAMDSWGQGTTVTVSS VL: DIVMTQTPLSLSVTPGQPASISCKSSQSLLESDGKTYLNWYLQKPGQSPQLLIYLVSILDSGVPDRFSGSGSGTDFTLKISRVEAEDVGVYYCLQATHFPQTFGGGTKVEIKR
87.7
